Test system: Fusobacterium necrophorum
method-summary: Antibacterial activity against Fusobacterium necrophorum assessed as resistant isolates by CLSI agar dilution method
Type: functional
observable: Activity (%)
Please state the figure in %; there is no need to write the unit.

Here's what some known entries look like.
>>> experimental_value("C[C@@H](O)[C@H]1C(=O)N2C(C(=O)O)=C(S[C@@H]3CN[C@H](C(=O)Nc4cccc(C(=O)O)c4)C3)[C@H](C)[C@H]12")
0
>>> experimental_value("CO[C@@]1(NC(=O)CSCC#N)C(=O)N2C(C(=O)O)=C(CSc3nnnn3C)CS[C@@H]21")
0
>>> experimental_value("C[C@@H](O)[C@H]1C(=O)N2C(C(=O)O)=C(S[C@@H]3CN[C@H](C(=O)N(C)C)C3)[C@H](C)[C@H]12")
8

Turning to the following compound.
// Activity lookup, compound = Cc1ncc([N+](=O)[O-])n1CCO , result: 0

###

Tested on: Fusobacterium mortiferum
method-summary: Antibacterial activity against Fusobacterium mortiferum by CLSI agar dilution method
Type: functional
observable: MIC90 (µg/mL)
Please state the figure in µg/mL; there is no need to write the unit.

Here's what some known entries look like.
>>> experimental_value("C[C@@H](O)[C@H]1C(=O)N2C(C(=O)O)=C(S[C@@H]3CN[C@H](C(=O)Nc4cccc(C(=O)O)c4)C3)[C@H](C)[C@H]12")
0.12
>>> experimental_value("C[C@@H](O)[C@H]1C(=O)N2C(C(=O)O)=C(S[C@@H]3CN[C@H](C(=O)N(C)C)C3)[C@H](C)[C@H]12 [MEROPENEM]")
0.12

// MIC90 lookup, compound = CCC[C@@H]1C[C@@H](C(=O)N[C@@H]([C@H]2O[C@H](SC)[C@H](O)[C@@H](O)[C@H]2O)[C@H](C)Cl)N(C)C1 [CLINDAMYCIN] , result: 4

// MIC90 lookup, compound = O=C(N[C@H](CO)[C@H](O)c1ccc([N+](=O)[O-])cc1)C(Cl)Cl [CHLORAMPHENICOL] , result: 2

###

Each entry below lists one item and its recorded MIC90 value.
System: Fusobacterium varium
method-summary: Antibacterial activity against Fusobacterium varium by CLSI agar dilution method
Format: functional
Please state the figure in µg/mL; there is no need to write the unit.

Here's what some known entries look like.
>>> experimental_value("CO[C@@]1(NC(=O)CSCC#N)C(=O)N2C(C(=O)O)=C(CSc3nnnn3C)CS[C@@H]21")
2
>>> experimental_value("Cc1ncc([N+](=O)[O-])n1CCO")
1
>>> experimental_value("CCC[C@@H]1C[C@@H](C(=O)N[C@@H]([C@H]2O[C@H](SC)[C@H](O)[C@@H](O)[C@H]2O)[C@H](C)Cl)N(C)C1")
4
>>> experimental_value("O=C(N[C@H](CO)[C@H](O)c1ccc([N+](=O)[O-])cc1)C(Cl)Cl")
2

// MIC90 lookup, compound = C[C@H]1COc2c(N3CCN(C)CC3)c(F)cc3c(=O)c(C(=O)O)cn1c23.C[C@H]1COc2c(N3CCN(C)CC3)c(F)cc3c(=O)c(C(=O)O)cn1c23.O , result: 4

// MIC90 lookup, compound = C[C@@H](O)[C@H]1C(=O)N2C(C(=O)O)=C(SCCNC=N)C[C@H]12 [IMIPENEM ANHYDROUS] , result: 4

// MIC90 lookup, compound = CC1(C)S[C@@H]2[C@H](NC(=O)Cc3ccccc3)C(=O)N2[C@H]1C(=O)O , result: 1
